The following molecules are listed with their measured relative cell viability values.
# Tested on: HCC1937;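 further: breast cancer cell viability read out with the CCK-8 kit after co-treatment of each compound with the ferroptosis inducer RSL3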
# Assay Info: relative cell viability, compound + RSL3, vs DMSO (fraction of DMSO control); higher = less growth inhibition
# Details: 72 h
Response field accepts a number only; no unit should be typed.

Some molecules with recorded relative cell viability:
* O=C(Oc1ccc([N+](=O)[O-])cc1)N1CCC(C(O)(c2ccc3c(c2)OCO3)c2ccc3c(c2)OCO3)CC1 + COC(=O)c1ccc([C@H]2c3[nH]c4ccccc4c3C[C@H](C(=O)OC)N2C(=O)CCl)cc1 [RSL3] | 0.483
* O=C(NCCN1CCC2(CC1)C(=O)NCN2c1ccccc1)c1ccc2ccccc2c1 + COC(=O)c1ccc([C@H]2c3[nH]c4ccccc4c3C[C@H](C(=O)OC)N2C(=O)CCl)cc1 [RSL3] | 0.229
* CC(C)=CCC[C@](C)(O)[C@H]1CC[C@]2(C)[C@@H]1[C@H](O)C[C@@H]1[C@@]3(C)CC[C@H](O)C(C)(C)[C@@H]3[C@@H](O[C@@H]3O[C@H](CO)[C@@H](O)[C@H](O)[C@H]3O)C[C@]12C [Ginsenoside Rh1] + COC(=O)c1ccc([C@H]2c3[nH]c4ccccc4c3C[C@H](C(=O)OC)N2C(=O)CCl)cc1 [RSL3] | 0.654

Asked: Which value of relative cell viability has been reported for C/C=C/c1cc(OC)c(OC)cc1OC [alpha-Asarone] + COC(=O)c1ccc([C@H]2c3[nH]c4ccccc4c3C[C@H](C(=O)OC)N2C(=O)CCl)cc1 [RSL3] in the records?
Given back: 0.452
